Reference source: patent US20110038881A1

The following binders are shown together with reported log10 IC50 values.
- test_system: HLA-DRB5*0101 (human)
- test_description: competition binding
- recorded_conditions: modification not given
Answers are given as log10 of IC50 in µM.

>>> assay_value("VGYVDDTQFVRFDSD [p6]")
0.96
>>> assay_value("VRFDSDAASQRMEPR [p8*]")
0.55
>>> assay_value("CDVGSDWRFLRGYHQ [p19]")
-1.48
>>> assay_value("VDLGTLRGYYNQSEA [p14*]")
1.04
>>> assay_value("RKVKAHSQTHRVDLG [p12]")
0.90

Consider the additional binder presented here.
Note to self: log10 IC50 recorded for LTWQRDGEDQTQDTE [p43] was 0.61
